Measured EC50 hGCGR CHO-K1 [nM] (cAMP, AlphaScreen) of individual entries
ASSAYED TARGET: human glucagon receptor (Glucagon-R) (human, UniProt P47871 26-477)
Sequence (P47871 26-477): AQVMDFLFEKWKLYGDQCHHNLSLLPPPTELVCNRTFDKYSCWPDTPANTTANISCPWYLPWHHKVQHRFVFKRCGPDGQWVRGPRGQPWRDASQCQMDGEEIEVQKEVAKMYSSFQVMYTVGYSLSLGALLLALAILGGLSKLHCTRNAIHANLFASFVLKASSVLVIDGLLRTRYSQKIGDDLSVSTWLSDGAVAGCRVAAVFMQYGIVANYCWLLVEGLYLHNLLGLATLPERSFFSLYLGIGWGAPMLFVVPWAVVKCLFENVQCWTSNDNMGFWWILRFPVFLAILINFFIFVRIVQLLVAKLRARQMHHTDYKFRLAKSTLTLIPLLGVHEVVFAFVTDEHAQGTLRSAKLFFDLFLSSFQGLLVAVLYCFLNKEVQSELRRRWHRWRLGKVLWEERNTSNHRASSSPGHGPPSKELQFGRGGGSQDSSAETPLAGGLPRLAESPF
PROTOCOL: cell-based or functional assay
*1 amine or outer side, *2 acyl side, *3 side chain or, on linkers, in order; H or OH if unused. Side-chain parts run from the residue outwards. [ ]: non-standard residue; d: D form. The star is where a group is joined. C18 diacid = O=C(O)CCCCCCCCCCCCCCCCC(=O)*; γGlu = O=C(O)[C@H](CCC(=O)[*:2])N[*:1]; Ac4c = NC1(C(=O)O)CCC1; Aib = CC(C)(N)C(=O)O
// units = nM; emit number, no label

Reference set (6 entries):
BINDER	REPORTED MEASUREMENT
HXQGTFTSDYSKYLDERRAKDFIKWLESA (Ac4c at position 2; Lys 24 side chain conjugated to [17-carboxy-heptadecanoyl]-isoGlu-GSGSGG; C-terminal amide) [H-H-Ac4c-QGTFTSDYSKYLDERRAKDFI-K([17-carboxy-heptadecanoyl]-isoGlu-GSGSGG)-WLESA-NH2]	0.18
HXQGTFTSDYSKYLEKRAAKDFIEWLESA (Aib at position 2; Lys 16 side chain conjugated to [17-carboxy-heptadecanoyl]-isoGlu-GSGSGG; C-terminal amide) [H-H-Aib-QGTFTSDYSKYLE-K([17-carboxy-heptadecanoyl]-isoGlu-GSGSGG)-RAAKDFIEWLESA-NH2]	0.44
HXQGTFTSDYSKYLDKRAAKDFIEWLESA (Aib at position 2; Lys 16 side chain conjugated to [17-carboxy-heptadecanoyl]-isoGlu-GSGSGG; C-terminal amide) [H-H-Aib-QGTFTSDYSKYLD-K([17-carboxy-heptadecanoyl]-isoGlu-GSGSGG)-RAAKDFIEWLESA-NH2]	0.18
HXQGTFTSDYSKYLDSKAAHDFVEWLLSA (Aib at position 2; Lys 17 side chain conjugated to [15-carboxy-pentadecanoyl]-isoGlu; C-terminal amide) [H-H-Aib-QGTFTSDYSKYLDS-K([15-carboxy-pentadecanoyl]-isoGlu)-AAHDFVEWLLSA-NH2]	0.21
HXQGTFTSDYSKYLDEKAAKDFIEWLESA (Aib at position 2; Lys 17 side chain conjugated to [17-carboxy-heptadecanoyl]-isoGlu; C-terminal amide) [H-H-Aib-QGTFTSDYSKYLDE-K([17-carboxy-heptadecanoyl]-isoGlu)-AAKDFIEWLESA-NH2]	1.08
HXQGTFTSDYSKYLDKRAAKDFIEWLESA (Ac4c at position 2; Lys 16 side chain conjugated to [17-carboxy-heptadecanoyl]-isoGlu-GSGSGG; C-terminal amide) [H-H-Ac4c-QGTFTSDYSKYLD-K([17-carboxy-heptadecanoyl]-isoGlu-GSGSGG)-RAAKDFIEWLESA-NH2]	0.11

**Q:** Query: EC50 hGCGR CHO-K1 [nM] (cAMP, AlphaScreen); subject: H-H[Ac4c]HGTFTSDYSKYLDEK([Peg3-Peg3-γGlu-C18 diacid])RAKDFIEWLESA-NH2 [H-H-Ac4c-HGTFTSDYSKYLDE-K([17-carboxy-heptadecanoyl]-isoGlu-Peg3-Peg3)-RAKDFIEWLESA-NH2]
**A:** 0.07

**Q:** Repeat for the following binder: H-H[Aib]QGTFTSDYSKYLDK([Peg3-Peg3-γGlu-C18 diacid])RAAKDFIEWLESA-NH2 [H-H-Aib-QGTFTSDYSKYLD-K([17-carboxy-heptadecanoyl]-isoGlu-Peg3-Peg3)-RAAKDFIEWLESA-NH2]
**A:** 0.13

**Q:** Request: H-H[Aib]QGTFTSDYSKYLEK([Peg3-Peg3-γGlu-C18 diacid])RAAHDFIEWLESA-NH2 [H-H-Aib-QGTFTSDYSKYLE-K([17-carboxy-heptadecanoyl]-isoGlu-Peg3-Peg3)-RAAHDFIEWLESA-NH2]
**A:** 0.31

**Q:** And for HXQGTFTSDYSKYLDERAAKDFIKWLESA (Aib at position 2; Lys 24 side chain conjugated to [17-carboxy-heptadecanoyl]-isoGlu-GSGSGG; C-terminal amide) [H-H-Aib-QGTFTSDYSKYLDERAAKDFI-K([17-carboxy-heptadecanoyl]-isoGlu-GSGSGG)-WLESA-NH2] ?
**A:** 1.48

**Q:** # repeat for H-H[Ac4c]QGTFTSDYSKYLDERAAKDFIKWLESA-NH2 (not fully specified (residue 24)) [H-H-Ac4c-QGTFTSDYSKYLDERAAKDFI-K([17-carboxy-heptadecanoyl]-isoGlu-GSGSGG)-WLESA-NH2]
**A:** 0.52

**Q:** Then what about the binder H-H[Ac4c]QGTFTSDYSKYLDEK([Peg3-Peg3-γGlu-C18 diacid])RAKDFIEWLESA-NH2 [H-H-Ac4c-QGTFTSDYSKYLDE-K([17-carboxy-heptadecanoyl]-isoGlu-Peg3-Peg3)-RAKDFIEWLESA-NH2] ?
**A:** 0.45

**Q:** Continue with HXQGTFTSDYSKYLDERRAKDFIEWLEKA (Ac4c at position 2; Lys 28 side chain conjugated to [17-carboxy-heptadecanoyl]-isoGlu-GSGSGG; C-terminal amide) [H-H-Ac4c-QGTFTSDYSKYLDERRAKDFIEWLE-K([17-carboxy-heptadecanoyl]-isoGlu-GSGSGG)-A-NH2]
**A:** 0.16

**Q:** Same again, this time with HXQGTFTSDYSKYLDERAAKDFIEWLEKA (Ac4c at position 2; Lys 28 side chain conjugated to [17-carboxy-heptadecanoyl]-isoGlu-GSGSGG; C-terminal amide) [H-H-Ac4c-QGTFTSDYSKYLDERAAKDFIEWLE-K([17-carboxy-heptadecanoyl]-isoGlu-GSGSGG)-A-NH2]
**A:** 0.92
